Tested on: TK-10 renal
Test: NCI tumour cell line growth inhibition, 384-well format
The entries below are paired with their reported TGI.
recorded-endpoint: TGI (µM)

- smiles-code: "CCc1c[nH]c2ncnc(N3CC[C@](N)(CNC(=O)c4ccc(F)cc4F)C3)c12"
  unit-label: "µM"
  limit-sign: "="
  assay-value: 45.3
- smiles-code: "O=C1COc2c(CCNCCN(C(=O)CCNCCc3ccc(Cl)c(Cl)c3)C3CCCCC3)ccc(O)c2N1"
  unit-label: "µM"
  limit-sign: "="
  assay-value: 22.2
- smiles-code: "Cc1c(-c2ccc(N3CCc4cccc(C(=O)Nc5nc6ccccc6s5)c4C3)nc2C(=O)O)cnn1CC12CC3CC(CC(C3)C1)C2"
  unit-label: "µM"
  limit-sign: "="
  assay-value: 16
- smiles-code: "CN(C)C(=O)c1cc2cnc(Nc3ccc(N4CCNCC4)cn3)nc2n1C1CCCC1"
  unit-label: "µM"
  limit-sign: ">"
  assay-value: 100
- smiles-code: "O=C(Nc1cccc(C(F)(F)F)c1)Nc1cc(S(=O)(=O)NC2CC2)ccc1-c1ccsc1"
  unit-label: "µM"
  limit-sign: "="
  assay-value: 14.1
